Measured values drawn from patent US20250011363A1 for this set.

# tested on: acetylcholine receptor
# measurement protocol: SPR, peptide at 10 uM on immobilized AchR
The label 1 is reserved for Binding affinity (RU) strictly under 30 RU; 0 covers values equal to or above it.

Some solved entries appear below for comparison.
| binder | classification |
| --- | --- |
| RPPVKK [6mer-2-1035] | 0 |
| KDTFRR [6mer-2-1078] | 0 |
| RCSHRR [6mer-2-1025] | 0 |
| RHTNKK [6mer-2-1007] | 0 |
| KEMGKK [6mer-2-1053] | 0 |
| RANHKK [6mer-2-1010] | 0 |

Query string: Hello, I'm reviewing records and need to know if Binding affinity (RU) of RFKARR [6mer-2-1005] is below 30 RU. Could you check?
Result string: 1

Query string: Hello, I'm reviewing records and need to know if Binding affinity (RU) of KHWERK [6mer-2-1038] is below 30 RU. Could you check?
Result string: 0

Query string: Hello, I'm reviewing records and need to know if Binding affinity (RU) of KNDWRK [6mer-2-1086] is below 30 RU. Could you check?
Result string: 1

Query string: Hello, I'm reviewing records and need to know if Binding affinity (RU) of KAWERK [6mer-2-1094] is below 30 RU. Could you check?
Result string: 0
